Overview of recorded pEC50 for various binders
- target.under.test: T1, human Trop-2 on the surface of cells (CHO/Trop-2 cells; BxPC-3 cells; NCI-N87 cells) (human, UniProt P09758 27-323)
- T1 construct: whole, on cells; One molecule for all cell lines; the cell line is named under assay or readout; also called Trop-2 on the surface of CHO cells; recombinant human Trop-2 protein on the surface of CHO cells
- T1 sequence (looked up): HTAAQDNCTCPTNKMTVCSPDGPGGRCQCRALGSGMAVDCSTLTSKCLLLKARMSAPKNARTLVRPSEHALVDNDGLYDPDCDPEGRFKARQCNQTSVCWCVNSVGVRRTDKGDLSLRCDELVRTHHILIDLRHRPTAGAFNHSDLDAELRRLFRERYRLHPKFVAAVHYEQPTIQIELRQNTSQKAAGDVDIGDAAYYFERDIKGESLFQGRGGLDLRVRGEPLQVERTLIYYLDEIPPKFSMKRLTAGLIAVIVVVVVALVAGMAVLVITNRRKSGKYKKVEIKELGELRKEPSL
- test.protocol: FACS, CHO/Trop-2 cells
For clarity, pEC50 is expressed as the negative log10 of concentration in mol/L.

Query: Item under review: chimeric antibody ch3-11 (antibody, human IgG1, V domains shown) VH: QVQLQQPGAELVKPGSSVKLSCKASGYTFTSYWMYWVKQRPGQGLEWIGEINPSNGRTNYNEKFKSKATLTVDKSSSTAYMQFSSLTSEDSAVYYCTREGHNYDGSLGAMDHWGQGTSVTVSS VL: DVVVTQTPLSLPVSFGDQVSISCRSSQSLTNSYGNTFLSWYLHKPGQSPQLLLYGISNRFSGVPDRFSGSGSGTDFTLKINTIKPEDLGMYYCFQSTHQPYTFGGGTKLEIK . Reported pEC50?
Result: 9.00

Query: // returns reported pEC50 for input chimeric antibody ch4-3 (antibody, human IgG1, V domains shown) VH: QVQLQQSGPELVKPGASVKMSCKASGFTFTDYVIGWVKQRTGQGLEWIGEIYLGSGTIYYTEKFKGKATLTADTSSNTAYMQLSSLTSEDSAVYFCARGSIFPFDYWGQGTTLTVSS VL: QIVLTQSPAIMSASPGEKVTMTCSASSSVSYMYWYQQKPGSSPRLLIYDTSTLASGVPVRFSGSGSGTSYSLTISRMEAEDAATYYCQQWSSYPYTFGGGTKLEIK
Result: 8.48

Query: Given the binder chimeric antibody ch23-12 (antibody, human IgG1, V domains shown) VH: QVQLQQPGAELVKPGASVKLSCKADGYIFTSYWMHWVKQRPGQGLEWIGEITPSDNYTSYNQKFKGKATLTVDKSSSTAYMQLSSLTSEDSAVYYCTRGHGNYVSFDYWGQGTTLTVSS VL: DIQMTQITSSLSASLGDRVTITCRASQDISNYLNWYQQKPDGTVKLLIYYTSRLHSGVPSRFSGSGSGTDYSLTISNLEQEDIATYFCQQGYTLPPYTFGGGTKLEIK , what is its reported pEC50?
Result: 8.56

Query: What pEC50 value was documented for this binder, Sacituzumab (antibody, human IgG1, kappa, V domains shown, expressed in HEK293; also called control antibody Sacituzumab; Saituzumab) VH: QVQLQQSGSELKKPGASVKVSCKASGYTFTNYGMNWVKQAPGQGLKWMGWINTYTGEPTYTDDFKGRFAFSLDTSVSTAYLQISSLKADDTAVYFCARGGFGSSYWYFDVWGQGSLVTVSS VL: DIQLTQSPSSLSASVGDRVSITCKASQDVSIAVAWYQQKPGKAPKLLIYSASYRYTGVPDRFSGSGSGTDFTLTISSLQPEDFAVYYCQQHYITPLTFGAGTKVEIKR ?
Result: 8.64
